# experimental-details: chemical genetic growth profiling, strain panel (AID 1159580);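 note: tested at 20 µM; growth read once vehicle control cultures reached saturation at 30 °C; 1 = growth at the plate median or of vehicle wells; lower values mean less growth of the strain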
# cond: S. cerevisiae deletion strains, growth OD, locus YLR258W, strain gsy2, hits give low values
Among all 5,500 compounds or so, about 2,000 (36%) were called active. Roughly 18% stayed inconclusive and do not appear here. Some of the results follow.
measured-property: normalized growth
Keep it simple and answer with nothing but the number.

What value of normalized growth has been reported for the following compound? "Cc1cc(/C=C/c2ccc3cc(N(C)C)ccc3[n+]2C)c(C)n1-c1ccccc1" 0.986

Next up: Clc1ccc(C(Cn2ccnc2)OCc2ccsc2Cl)c(Cl)c1 (configuration not stated) 0.0592

Next up: Clc1ccc(COC(Cn2ccnc2)c2ccc(Cl)cc2Cl)c(Cl)c1 (configuration not stated) 0.0636

Next up: Clc1ccc(CSC(Cn2ccnc2)c2ccc(Cl)cc2Cl)cc1 (configuration not stated) 0.0614

Next up: CCC(=O)OC1[C@@H]2CC3=C4CC(=O)O[C@@H](c5ccoc5)[C@]4(C)CCC3[C@@](C)(C2=O)[C@@H](CC(=O)OC)C1(C)C (some centres not stated) 1.01

Next up: COC1C=CC23c4cc5c(cc4CN(CC2O)[C@@H]3C1)OCO5 (some centres not stated) 0.97

Next up: "CC(=O)OC/C=C(\C)CC/C=C(\C)CC/C=C(\C)CC/C=C(\C)CC/C=C(\C)CC/C=C(\C)CC/C=C(\C)CC/C=C(\C)CCC=C(C)C" 0.997

###

# experimental-details: chemical genetic growth profiling, strain panel (AID 1159580)
# cond: S. cerevisiae deletion strains, growth OD, locus YML120C, strain ndi1
Screen size: about 5,500 compounds; about 2,000 (36%) were called active. Another 18% or so got no clear call; they are omitted. No stated cut-off is given here; in the data, active means normalized growth mostly below about 0.91 (no sharp cut-off); inconclusive means no clear call, values can overlap the other calls; inactive means mostly above about 0.92. This is one part of the list.
Tick one outcome: class 1 = active, class 0 = inactive

Test call, this compound: CC1(C)C(=O)[C@@H]2O[C@@H]2[C@@]2(C)C1C[C@@H](O)[C@]1(C)C2CC[C@@]2(C)[C@H](c3ccoc3)OC(=O)C3OC321 (some centres undefined) class 0

Next up: COc1ccc2nc(S(=O)Cc3ncc(C)c(OC)c3C)[nH]c2c1 (centres undefined) class 0

Next up: "COc1c(C)c2c(c(O)c1C/C=C(\C)CCC(=O)O)C(=O)OC2" class 1

Next up: NC(=O)NC1NC(=O)NC1=O (centres undefined) class 0

Next up: CC(=O)O[C@@H]1CC2C(C)(C)[C@@H](O)CC[C@]2(C)C2CC[C@@]3(C)[C@H](c4ccoc4)OC(=O)[C@H]4O[C@]43[C@@]21C (some centres undefined) class 0

Next up: CC(=O)O[C@@H]1CC2C(C)(C)[C@H](O)C=C[C@]2(C)C2CC[C@@]3(C)[C@H](c4ccoc4)OC(=O)C4OC43[C@@]21C (some centres undefined) class 0

Next up: "Clc1ccccc1CN1CCc2sccc2C1" class 0

Next up: CC(=O)O[C@H]1C[C@@H](OC(C)=O)C(C)(C)C2C[C@@H](OC(C)=O)[C@]3(C)C(CC[C@@]4(C)[C@H](c5ccoc5)OC(=O)[C@H]5O[C@]543)[C@]21C (some centres undefined) class 0

Next up: CC(=O)O[C@H]1CC[C@@]2(C)C(C[C@@H](OC(C)=O)[C@]3(C)C2CC[C@@]2(C)[C@H](c4ccoc4)OC(=O)[C@H]4O[C@]423)C1(C)C (some centres undefined) class 0

###

Provide the recorded normalized growth for the entries that follow.
# experimental-details: chemical genetic growth profiling, strain panel (AID 1159580);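 note: tested at 20 µM; growth read once vehicle control cultures reached saturation at 30 °C; 1 = growth at the plate median or of vehicle wells; lower values mean less growth of the strain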
# cond: S. cerevisiae deletion strains, growth OD, locus YKL190W, strain CNB1, hits give low values
Among all 5,500 compounds or so, about 2,000 (36%) were called active. Roughly 18% stayed inconclusive and do not appear here. The list shows a part of the results.
Keep it simple and answer with nothing but the number.

What value of normalized growth has been reported for the following molecule? "Cc1cc2c3c(c1)c(O)cc(=O)n3CCC2" 0.988

Next up: NC(=O)NC1NC(=O)NC1=O (stereo not drawn) 0.997

Next up: "COc1ccc(-c2nc(-c3ccc(-c4ccccc4)cc3)cs2)cc1" 0.995

Next up: "COP(=S)(OC)Oc1ccc([N+](=O)[O-])cc1" 0.975

Next up: "O=C1NC2(CCN(Cc3ccccc3)CC2)Oc2ccccc21" 0.988

Next up: "N#Cc1cccc(CSC2=NCN(C3CC3)CN2)c1" 1.01

Next up: "FC(F)(F)c1cccc(N2CCNCC2)c1" 1.01

Next up: CN[C@@H]1C(OC2[C@H](O[C@H]3[C@H](O)[C@@H](O)[C@H](N=C(N)N)[C@@H](O)[C@@H]3N=C(N)N)OC(C)[C@]2(O)CO)OC(CO)C(O)C1O (stereo partly drawn) 0.998

###

Provide the recorded normalized growth for the entries that follow.
# experimental-details: chemical genetic growth profiling, strain panel (AID 1159580);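 note: tested at 20 µM; growth read once vehicle control cultures reached saturation at 30 °C; 1 = growth at the plate median or of vehicle wells; lower values mean less growth of the strain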
# cond: S. cerevisiae deletion strains, growth OD, locus YDL040C, strain nat1, hits give low values
Out of some 5,500 compounds screened, about 2,000 (36%) were called active. Another 18% or so got no clear call; they are omitted. The list shows a part of the results.
Keep it simple and answer with nothing but the number.

What value of normalized growth has been reported for the following molecule? "CN1CCC[C@@H]1CCO[C@](C)(c1ccccc1)c1ccc(Cl)cc1" 1

Next up: Cc1cccc(C)c1NC(=O)C1CCCCN1C (stereo unspecified) 0.986

Next up: CC(=O)Oc1c2c(c3c(c1CC=C(C)C)O[C@]14C(=C[C@@H]5CC1C(C)(C)OC4(C/C=C(\C)C(=O)O)C5=O)C3=O)OC(C)(CCC=C(C)C)C=C2 (stereo partly specified) 0.977

Next up: CC(=O)Oc1c2c(c(CC=C(C)C)c3c1C(=O)C1=C[C@@H]4CC5C(C)(C)OC(C/C=C(\C)C(=O)O)(C4=O)[C@@]15O3)OC(C)(CCC=C(C)C)C=C2 (stereo partly specified) 0.978

Next up: "C1N2CN3CN1CN(C2)C3" 0.996

Next up: COC1C=CC23c4cc5c(cc4CN(CC2O)[C@@H]3C1)OCO5 (stereo partly specified) 0.975

###

# experimental-details: chemical genetic growth profiling, strain panel (AID 1159580);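 note: tested at 20 µM; growth read once vehicle control cultures reached saturation at 30 °C; 1 = growth at the plate median or of vehicle wells; lower values mean less growth of the strain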
# cond: S. cerevisiae deletion strains, growth OD, locus YLR258W, strain gsy2, hits give low values
Out of some 5,500 compounds screened, about 2,000 (36%) were called active. Inconclusive results (about 18%) are left out. Some of the results follow.
Provide the recorded normalized growth for the entries that follow.
Keep it simple and answer with nothing but the number.

What value of normalized growth has been reported for the following compound? "c1ccc2c(CC3=NCCN3)cccc2c1" 0.991

Next up: CC(=O)O[C@H]1CC[C@@]2(C)C(C[C@@H](OC(C)=O)[C@]3(C)C2CC[C@@]2(C)[C@H](c4ccoc4)OC(=O)[C@H]4O[C@]423)C1(C)C (stereo partly drawn) 0.994

Next up: "O=C1CCCN1CC#CCN1CCCC1" 1.02

Next up: CC1(C)N([O-])[N+](=O)C1(C)Br (stereo not drawn) 0.985

Next up: "CC(C)(S)[C@@H](N)C(=O)O" 1

Next up: CC(=O)O[C@@H]1CC2C(C)(C)[C@@H](O)CC[C@]2(C)C2CC[C@@]3(C)[C@H](c4ccoc4)OC(=O)[C@H]4O[C@]43[C@@]21C (stereo partly drawn) 1.01

Next up: COc1ccc2nc(S(=O)Cc3ncc(C)c(OC)c3C)[nH]c2c1 (stereo not drawn) 0.989

Next up: NCC[C@@H](O)C(=O)N[C@@H]1C[C@H](N)[C@@H](O[C@H]2O[C@H](CN)[C@@H](O)[C@H](O)[C@H]2O)[C@H](O)[C@H]1O[C@H]1O[C@H](CO)[C@@H](O)[C@H](N)C1O (stereo partly drawn) 1.02

Next up: CC(=O)OCC(=O)[C@@]1(O)CCC2C3CCC4=CC(=O)C=CC4(C)C3[C@@H](O)C[C@@]21C (stereo partly drawn) 1

Next up: "Fc1ccc([C@@H]2CCNC[C@H]2COc2ccc3c(c2)OCO3)cc1" 1.01

Next up: O=c1cccc2n1CC1CC2CN2CCCC[C@@H]12 (stereo partly drawn) 0.978

Next up: NC(C(=O)O)C(O)C(=O)O (stereo not drawn) 0.995

Next up: "O=C(O)CCCCCCCC(=O)O" 1.02

Next up: "Clc1ccccc1CN1CCc2sccc2C1" 1.01

Next up: "NC(N)=NCCCCN=C(N)N" 1.01

Next up: CC(=O)O[C@H]1C[C@@H](OC(C)=O)C(C)(C)C2C[C@@H](OC(C)=O)[C@]3(C)C(CC[C@@]4(C)[C@H](c5ccoc5)OC(=O)[C@H]5O[C@]543)[C@]21C (stereo partly drawn) 0.998

Next up: "NC1(C(=O)O)CCCC1" 1.02

Next up: CC1OC(O[C@H]2/C=C/C=C/C=C/C=C/C=C/C=C/C=C/[C@H](C)[C@@H](O)[C@@H](C)[C@H](C)OC(=O)CC(O)CC(O)CCC(O)C(O)CC(O)C[C@]3(O)C[C@H](O)C(C(=O)O)C(C2)O3)C(O)[C@H](N)C1O (stereo partly drawn) 0.981

Next up: O=C(O)CCC1NCC2CC1CN1CCCCC21 (stereo not drawn) 0.992

Next up: C=CCS(=O)C[C@H](N)C(=O)O (stereo partly drawn) 0.987

Next up: CN(C)CCC(c1ccccc1)c1ccccn1 (stereo not drawn) 1.01

Next up: "NCCCNCCSP(=O)(O)O" 0.994

Next up: CC1C/C=C/C=C/C=C/C=C/C(O[C@@H]2O[C@H](C)[C@@H](O)[C@H](N)[C@@H]2O)CC2OC(O)(CC(O)CC3OC3/C=C/C(=O)O1)CC(O)C2C(=O)O (stereo partly drawn) 0.977

Next up: NC(=O)NC1NC(=O)NC1=O (stereo not drawn) 1

Next up: "N[C@@H](C(=O)O)[C@@H](O)[C@H](O)[C@H](O)CO" 1.01

Next up: CC(=O)O[C@H]1C[C@@H](OC(C)=O)C(C)(C)C2C[C@@H](O)[C@]3(C)C(CC[C@@]4(C)[C@H](c5ccoc5)OC(=O)[C@H]5O[C@]543)[C@]21C (stereo partly drawn) 0.992

Next up: CC(=O)O[C@@H]1CC2C(C)(C)[C@H](O)CC[C@]2(C)C2CC[C@@]3(C)[C@H](c4ccoc4)OC(=O)C4OC43[C@@]21C (stereo partly drawn) 1.02

Next up: CC(=O)O[C@@H]1CC2C(C)(C)C(=O)C3OC3[C@]2(C)C2CC[C@@]3(C)[C@H](c4ccoc4)OC(=O)C4OC43[C@@]21C (stereo partly drawn) 0.99
